# Tested on: HL-60
# experiment description: Cytotoxicity against human HL-60 cells assessed as cell growth inhibition incubated for 48 hrs by XTT assay
# Assay type: functional, cell-based
# protocol conditions: HL-60, 48 h
Record form. Attribute: pIC50. Fill in for each entry.
Answers are plain numbers, as −log10 of the molar value.

// query Could you share which pIC50 value was measured for COc1ccc2c(c1OC)CN(C)[C@@H]1c3cc4c(cc3C[C@H](O)[C@H]21)OCO4 ?
// result 5.32

Okay, now this molecule:
// query Could you share which pIC50 value was measured for CN1Cc2c(ccc3c2OCO3)[C@@H]2[C@H]1c1cc3c(cc1C[C@@H]2O)OCO3 ?
// result 5.66
